Data origin, for the record: the supplement of paper PMC12024529

test system: HEK293 WT BDD-FVIII-Gluc; experiment: secreted FVIII-Gluc luciferase Z-score vs DMSO control; higher = more FVIII-Gluc secretion; settings: 5 µM
Is secreted FVIII-Gluc luciferase Z-score at least 0.4? Then fulfilled. If not, not fulfilled.

- O=C(O)c1cc(O)c2c(c1)C(=O)c1cccc(O)c1C2=O: not fulfilled
- O=C(/C=C/c1ccc(O)c(O)c1)OC(Cc1ccc(O)c(O)c1)C(=O)O (stereo unspecified): fulfilled
- CO[C@H]1/C=C/O[C@@]2(C)Oc3c(C)c(O)c4c(O)c(c(/C=N/N5CCN(C)CC5)c(O)c4c3C2=O)NC(=O)/C(C)=C\C=C\[C@H](C)[C@H](O)[C@@H](C)[C@@H](O)[C@@H](C)[C@H](OC(C)=O)[C@@H]1C: not fulfilled
- O=C(O)c1cc(O)c2c(c1)[C@@H]([C@H]1c3cc(C(=O)O)cc(O)c3C(=O)c3c(O[C@@H]4O[C@H](CO)[C@@H](O)[C@H](O)[C@H]4O)cccc31)c1cccc(O[C@@H]3O[C@H](CO)[C@@H](O)[C@H](O)[C@H]3O)c1C2=O: not fulfilled
- COc1cc2c(cc1OC)-c1c(OC)c(OC)cc3ccnc(c13)C2=O: not fulfilled
- Oc1cc(O)c2c(c1)O[C@H](c1ccc(O)c(O)c1)[C@@H](O)C2: not fulfilled
- CC1CC[C@H](C(C)C)C(O)C1 (stereo partly specified): fulfilled
- CC(=O)O[C@H]1C(=O)[C@@]2(C)C([C@H](OC(=O)c3ccccc3)[C@]3(O)C[C@H](OC(=O)[C@@H](O)[C@@H](NC(=O)c4ccccc4)c4ccccc4)C(C)=C1C3(C)C)[C@]1(OC(C)=O)CO[C@@H]1C[C@@H]2O (stereo partly specified): not fulfilled
- CC[C@@H]1OC(=O)[C@@H](C)[C@H](O[C@H]2C[C@@](C)(OC)[C@@H](O)[C@H](C)O2)C(C)[C@H](O[C@H]2O[C@@H](C)C[C@@H](N(C)C)[C@@H]2O)[C@@](C)(O)C[C@H](C)C(=O)[C@@H](C)[C@H](O)[C@@]1(C)O (stereo partly specified): not fulfilled
- COc1ccc2c(OC)c3ccoc3nc2c1OC: fulfilled
- COC(=O)[C@@H]1C(O)CCC2CN3CCc4c([nH]c5ccccc45)C3CC21 (stereo partly specified): not fulfilled
- Cc1c(-c2c(C)c(=O)c3c(C(C)C)c(=O)c(=O)c(C=O)c-3c2=O)c(O)c2c(C=O)c(O)c(O)c(C(C)C)c2c1O: not fulfilled
- N[C@H](Cc1c[nH]c2ccccc12)C(=O)O: not fulfilled
- C/C(=C\CNc1ncnc2c1ncn2C1OC(CO)C(O)C1O)CO (stereo unspecified): not fulfilled
- CC1(C)[C@@H]2CC[C@@]1(C)C(=O)C2: not fulfilled
- Cc1ncc(CO)c(C=O)c1O: fulfilled
